Answer each item with its documented IC50.
# Test system: IFNα-stimulated STAT-dependent luciferase reporter in Kit225 T cells
# Test summary: Kit225 T cell assay, IFNα stimulated STAT-dependent luciferase reporter
# Assay type: cell-based, human
# Assay context: Kit225 T cells, 200 U/mL human recombinant IFNα, 5-6 hours, luciferase; read-out: IFNα (Kit225 T Cell Inhibition Data)
Your answer should be a number followed by the unit of measure.

Item: CNC(=O)c1cnc(Nc2cc(C)c(F)cn2)cc1Nc1cccc(-c2ccnn2C)c1OC | System: IFNα-stimulated STAT-dependent luciferase reporter in Kit225 T cells | IC50: 70 nM

Response field IC50 (IFNα-stimulated STAT-dependent luciferase reporter in Kit225 T cells) for item CNC(=O)c1cnc(Nc2ccc(F)cn2)cc1Nc1ccccc1S(=O)(=O)N(C)C : 2090 nM

Given the molecule CNC(=O)c1cnc(Nc2cc(S(=O)(=O)N(C)C)ccn2)cc1Nc1ccccc1S(C)(=O)=O and test system IFNα-stimulated STAT-dependent luciferase reporter in Kit225 T cells, the measured IC50 is 430 nM

Tested on IFNα-stimulated STAT-dependent luciferase reporter in Kit225 T cells, the item CNC(=O)c1cnc(Nc2ccc(C#N)cn2)cc1Nc1ccc(F)cc1OC showed IC50 equal to 640 nM

Lab entry: IFNα-stimulated STAT-dependent luciferase reporter in Kit225 T cells assay, molecule CNC(=O)c1cnc(Nc2ccccn2)cc1Nc1ccc(Cl)cc1OC , IC50 = 420 nM

The reported IC50 value, IFNα-stimulated STAT-dependent luciferase reporter in Kit225 T cells, for CNC(=O)c1cnc(Nc2cc(C)c(F)cn2)cc1Nc1cccc(C(=O)NCC(O)c2ccccc2)c1OC (centres unmarked) reads 40 nM

Entry [2H]C([2H])([2H])NC(=O)c1cnc(Nc2cc(C)c(C#N)c(C)n2)cc1Nc1ccccc1S(C)(=O)=O , tested on IFNα-stimulated STAT-dependent luciferase reporter in Kit225 T cells, has a reported IC50 of 80 nM

Form field, IC50 with IFNα-stimulated STAT-dependent luciferase reporter in Kit225 T cells, item CNC(=O)c1cnc(Nc2ccc(Cl)cn2)cc1Nc1ccccc1S(C)(=O)=O : 100 nM

Noted IC50 for CNC(=O)c1cnc(Nc2cc(Cl)ccn2)cc1Nc1cc(F)cc(F)c1OC , tested on IFNα-stimulated STAT-dependent luciferase reporter in Kit225 T cells: 230 nM

Recorded IC50 for CNC(=O)c1cnc(Nc2cnc(OC)cn2)cc1Nc1ccccc1S(C)(=O)=O on IFNα-stimulated STAT-dependent luciferase reporter in Kit225 T cells was 220 nM

The molecule CNC(=O)c1cnc(Nc2ccc(C)cn2)cc1Nc1ccccc1C(N)=O , tested on IFNα-stimulated STAT-dependent luciferase reporter in Kit225 T cells, showed IC50 of 380 nM

Lab note: molecule CNC(=O)c1ccc(Nc2cc(Nc3ccc(F)cn3)ncc2C(=O)NC)c(S(C)(=O)=O)c1 tested on IFNα-stimulated STAT-dependent luciferase reporter in Kit225 T cells; recorded IC50 was 570 nM

Readout IC50 for CNC(=O)c1cnc(Nc2ccc(F)cn2)cc1Nc1ccccc1SC(F)(F)F , test system IFNα-stimulated STAT-dependent luciferase reporter in Kit225 T cells, was 860 nM

Entry CNC(=O)c1cnc(Nc2cc(C)c(F)cn2)cc1Nc1cccc(C(=O)NCC2CCCCC2)c1OC , tested on IFNα-stimulated STAT-dependent luciferase reporter in Kit225 T cells, has a reported IC50 of 210 nM

Per the reported IFNα-stimulated STAT-dependent luciferase reporter in Kit225 T cells data, CNC(=O)c1cnc(Nc2cc(C)ccn2)cc1Nc1ccc(Cl)cc1OC has IC50 of 200 nM

Entry CNC(=O)c1cnc(Nc2cc(C)c(F)cn2)cc1Nc1cccc(C(=O)NCC(C)(C)O)c1OC under IFNα-stimulated STAT-dependent luciferase reporter in Kit225 T cells had IC50 of 70 nM

IC50 value, target or system IFNα-stimulated STAT-dependent luciferase reporter in Kit225 T cells, for CNC(=O)c1cnc(Nc2ccc(OC)cn2)cc1Nc1cc(F)cc(F)c1OC : 70 nM
